biological target: BRD4 (BD1+BD2) bromodomain (Homo sapiens (Human), UniProt O60885); assay: BRD4 binding inhibition (AlphaScreen, GST-BRD4 vs tetraacetylated histone H4 peptide); details: GST-BRD4 (BD1+BD2) vs biotinylated acetyl-histone H4 peptide, AlphaScreen; read-out: BRD4 IC50
Structures can show the parent of a compound that is named as a salt.
Quick rule for you: IC50 under 40 nM gets rule met, anything else gets rule not met.

{"Compound": "COc1cccc2c1nc(NCCCCN)c1nnc(C)n12 [Example 118, dihydrochloride]", "Target under test": "BRD4 (BD1+BD2) bromodomain (Homo sapiens (Human), UniProt O60885)", "Group label": "rule not met"}
{"Compound": "COc1cc2nc(NCCCCN)c3nnc(C)n3c2cc1C", "Target under test": "BRD4 (BD1+BD2) bromodomain (Homo sapiens (Human), UniProt O60885)", "Group label": "rule not met"}
{"Compound": "COc1ccc2c(c1)nc(NCCCCNC(=O)[C@@H](C)O)c1nnc(C)n12", "Target under test": "BRD4 (BD1+BD2) bromodomain (Homo sapiens (Human), UniProt O60885)", "Group label": "rule met"}
{"Compound": "CCC(C)CC(=O)NCCCCNc1nc2cc(OC)ccc2n2c(C)nnc12 (stereo not shown)", "Target under test": "BRD4 (BD1+BD2) bromodomain (Homo sapiens (Human), UniProt O60885)", "Group label": "rule met"}
{"Compound": "COc1cc2nc(NCCCCNC(=O)c3ccccc3)c3nnc(C)n3c2cc1OC", "Target under test": "BRD4 (BD1+BD2) bromodomain (Homo sapiens (Human), UniProt O60885)", "Group label": "rule met"}
{"Compound": "Cc1ccc2nc(NCCCCNC(=O)NC(C)(C)C)c3nnc(C)n3c2c1", "Target under test": "BRD4 (BD1+BD2) bromodomain (Homo sapiens (Human), UniProt O60885)", "Group label": "rule not met"}
{"Compound": "COc1cccc2c1nc(NCCCCNC(=O)OC(C)(C)C)c1nnc(C)n12", "Target under test": "BRD4 (BD1+BD2) bromodomain (Homo sapiens (Human), UniProt O60885)", "Group label": "rule not met"}
{"Compound": "COCCOc1ccc2c(c1)nc(NCCCCNC(=O)c1ccccn1)c1nnc(C)n12", "Target under test": "BRD4 (BD1+BD2) bromodomain (Homo sapiens (Human), UniProt O60885)", "Group label": "rule not met"}
{"Compound": "COc1ccc2c(c1)nc(NCCCCNC(=O)[C@@H](OC)C(C)C)c1nnc(C)n12", "Target under test": "BRD4 (BD1+BD2) bromodomain (Homo sapiens (Human), UniProt O60885)", "Group label": "rule met"}
{"Compound": "CNc1cc2c(cc1OC)nc(NCCCCNC(=O)CC(C)C)c1nnc(C)n12", "Target under test": "BRD4 (BD1+BD2) bromodomain (Homo sapiens (Human), UniProt O60885)", "Group label": "rule met"}
{"Compound": "Cc1nnc2c(NCCCCNC(=O)OC(C)(C)C)nc3cc(C(=O)NC(C)(C)C)ccc3n12", "Target under test": "BRD4 (BD1+BD2) bromodomain (Homo sapiens (Human), UniProt O60885)", "Group label": "rule not met"}
{"Compound": "C/C=C/C(=O)NCCCCNc1nc2cc(OCCOC)ccc2n2c(C)nnc12", "Target under test": "BRD4 (BD1+BD2) bromodomain (Homo sapiens (Human), UniProt O60885)", "Group label": "rule met"}
{"Compound": "Cc1nnc2c(NCCCCNC(=O)CC(C)C)nc3ccc(NCCCC#N)cc3n12", "Target under test": "BRD4 (BD1+BD2) bromodomain (Homo sapiens (Human), UniProt O60885)", "Group label": "rule met"}
{"Compound": "COCCOc1ccc2c(c1)nc(NCCCCNC(=O)c1ccccc1F)c1nnc(C)n12", "Target under test": "BRD4 (BD1+BD2) bromodomain (Homo sapiens (Human), UniProt O60885)", "Group label": "rule met"}
{"Compound": "COc1cc2nc(NCCCCNC(=O)CC(C)C)c3nnc(C)n3c2c(OC)c1OC", "Target under test": "BRD4 (BD1+BD2) bromodomain (Homo sapiens (Human), UniProt O60885)", "Group label": "rule met"}
{"Compound": "COc1cc2nc(NCCCCNC(=O)CC(C)C)c3nnc(C)n3c2cc1C(F)(F)F", "Target under test": "BRD4 (BD1+BD2) bromodomain (Homo sapiens (Human), UniProt O60885)", "Group label": "rule met"}
{"Compound": "COCCOc1ccc2c(c1)nc(NCCCCNC(=O)OC(C)C)c1nnc(C)n12", "Target under test": "BRD4 (BD1+BD2) bromodomain (Homo sapiens (Human), UniProt O60885)", "Group label": "rule met"}
{"Compound": "Cc1nnc2c(NCCCCNC(=O)OC(C)(C)C)nc3ccc(F)cc3n12", "Target under test": "BRD4 (BD1+BD2) bromodomain (Homo sapiens (Human), UniProt O60885)", "Group label": "rule not met"}
{"Compound": "Cc1ccc2[nH]c(-c3ccc4c(c3)nc(NCCCCNC(=O)OC(C)(C)C)c3nnc(C)n34)nc2c1", "Target under test": "BRD4 (BD1+BD2) bromodomain (Homo sapiens (Human), UniProt O60885)", "Group label": "rule not met"}
{"Compound": "Cc1nnc2c(NCCCCNC(=O)CC(C)C)nc3cc(OCc4ccccc4)ccc3n12", "Target under test": "BRD4 (BD1+BD2) bromodomain (Homo sapiens (Human), UniProt O60885)", "Group label": "rule met"}
{"Compound": "Cc1nnc2c(NCCCCNC(=O)CC(C)C)nc3cc(OCCCC#N)ccc3n12", "Target under test": "BRD4 (BD1+BD2) bromodomain (Homo sapiens (Human), UniProt O60885)", "Group label": "rule not met"}
{"Compound": "Cc1nnc2c(NCCCCNC(=O)CC(C)(C)C)nc3cc(OC(F)(F)F)ccc3n12", "Target under test": "BRD4 (BD1+BD2) bromodomain (Homo sapiens (Human), UniProt O60885)", "Group label": "rule met"}
{"Compound": "Cc1nnc2c(NCCCCNC(=O)CC(C)C)nc3cc(N)ccc3n12", "Target under test": "BRD4 (BD1+BD2) bromodomain (Homo sapiens (Human), UniProt O60885)", "Group label": "rule met"}
{"Compound": "COc1cc2nc(NCCCCNC(=O)CC(C)C)c3nnc(C)n3c2cc1N", "Target under test": "BRD4 (BD1+BD2) bromodomain (Homo sapiens (Human), UniProt O60885)", "Group label": "rule met"}
